# Test system: 931267-113-T-J1-PDC multicell spheroid viability;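 further: viability read 7 days after compound addition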
# Test Protocol: Anticancer human tumor 931267-113-T-J1-PDC patient-derived colon adenocarcinoma cell line growth inhibition [PI3K]
# Measurement Parameters: second compound 0.0316 µM; first compound 10 µM; stronger effect = lower value
For each record, check the reported viability, T/C: if it is below 50% write MET, else write NOT MET.

### Prompt Consider CCCS(=O)(=O)Nc1ccc(F)c(C(=O)c2c[nH]c3ncc(-c4ccc(Cl)cc4)cc23)c1F + Cc1nc(NC(=O)N2CCCC2C(N)=O)sc1-c1ccnc(C(C)(C)C(F)(F)F)c1 . Does its viability, T/C lie strictly below 50%?
### Response MET

### Prompt Consider CCCS(=O)(=O)Nc1ccc(F)c(C(=O)c2c[nH]c3ncc(-c4ccc(Cl)cc4)cc23)c1F + CC(Nc1ncnc2nc[nH]c12)c1cc2cccc(Cl)c2c(=O)n1-c1ccccc1 . Does its viability, T/C lie strictly below 50%?
### Response MET

### Prompt Consider Cn1nccc1Nc1nccc(-c2ccn(C(CO)c3ccc(Cl)c(F)c3)c(=O)c2)n1 (stereo not given) + CC(Nc1ncnc2nc[nH]c12)c1cc2cccc(Cl)c2c(=O)n1-c1ccccc1 . Does its viability, T/C lie strictly below 50%?
### Response MET

### Prompt Consider CC(Cn1ccc(-c2ccc(C#N)c(Cl)c2)n1)NC(=O)c1cc(C(C)O)[nH]n1 (stereo not given) + CC(Nc1ncnc2nc[nH]c12)c1cc2cccc(Cl)c2c(=O)n1-c1ccccc1 . Does its viability, T/C lie strictly below 50%?
### Response NOT MET

### Prompt Consider C=CC(=O)N1CCN(c2nc(=O)n(-c3c(C)ccnc3C(C)C)c3nc(-c4c(O)cccc4F)c(F)cc23)C(C)C1 (stereo not given) + CC(Nc1ccc2c(c1)OCCn1cc(N3C(=O)OCC3C(F)F)nc1-2)C(N)=O . Does its viability, T/C lie strictly below 50%?
### Response NOT MET
